method description: CCTE_Harrill_HTTr_Viability_DMEM_12hr: (Pilot) CCTE's 12-hour Cell Viability Assessment for the High-Throughput Transcriptomics (HTTr) Platform, in MCF-7 cells cultured in DMEM + 10% fetal bovine serum, Harrill Lab (AID 2283974)
Activity calls are given as the source filed them. The calls were made as follows: active = hit-call score of the fitted dose curve at least 0.9, where 1 is the maximum; inactive = score below 0.9.
Write down one outcome, taken from YES for active, NO for inactive

A selection of reference data follows.
> print(dat)
                                   compound  class.label
1             S=C([S-])NCCNC(=S)[S-].[Mn+2]           NO
2  Cc1nn(C)c(Oc2ccccc2)c1C=NOCc1ccc(C(=O)OC(C)(C)C)cc1           NO
3                    CC(C)CCCCCCc1ccc(O)cc1          YES
4  N[C@@H](Cc1cc(I)c(Oc2ccc(O)c(I)c2)c(I)c1)C(=O)O           NO

Could you now look at the following compound, please?
Outcome? C[C@]12CC[C@@H]3c4ccc(O)cc4C[C@@H](CCCCCCCCCS(=O)CCCC(F)(F)C(F)(F)F)[C@H]3[C@@H]1CC[C@@H]2O (stereo not given in full)
NO

----------
Read-out: ABC Transporter (ABCB1), ABCB1 (gene 5243)
method description: LTEA_HepaRG_ABCB1: Life Technologies and Expression Analysis (LTEA) Assay for ABC Transporter (ABCB1) using HepaRG (AID 2283460)
recorded conditions: mRNA level, 48 h; actives raise or lower the signal
The source made the active and inactive calls. How the source made its calls: active means hit-call score of the fitted dose curve at least 0.9, where 1 is the maximum; inactive means score below 0.9.
measure name: outcome

Worked cases, answers included:
> print(dat)
                                   compound  meas.value
1                        CCCOC(=O)NCCCN(C)C    inactive
2  CCC(C)OC(=O)N1CCCCC1CCO (configuration not stated)    inactive
3                   CCN(CC)C(=O)c1cccc(C)c1    inactive
4                       N#CSCSc1nc2ccccc2s1    inactive
5              CCCOC(=O)c1ccc(C(=O)OCCC)nc1    inactive

Looking for the measured outcome of COC(=O)c1ccccc1C(=O)O , can you help?
inactive

Looking for the measured outcome of CCCCOC(=O)C(C)Oc1ccc(Oc2ccc(C(F)(F)F)cn2)cc1 (configuration not stated) , can you help?
inactive

----------
method description: BSK_3C_VCAM1: BioMAP Diversity Plus: 3C Assay for Vascular cell adhesion molecule 1 (VCAM1) Biomarker Activity (AID 2282999)
recorded conditions: BioMAP 3C HUVEC, VCAM1 ELISA, cytokine-stimulated; actives raise or lower the signal
Activity calls are given as the source filed them. The calls were made as follows: active = hit-call score of the fitted dose curve at least 0.9, where 1 is the maximum; inactive = score below 0.9.
Write down one outcome, taken from y = active, n = inactive

> print(dat)
                            compound  class.label
1  O=C(O)C1(C(=O)Nc2ccc(Cl)cc2Cl)CC1            n

Could you now look at the following compound, please?
Outcome? CC(=O)[C@H]1CC[C@H]2[C@@H]3CCC4=CC(=O)CC[C@]4(C)[C@H]3CC[C@]12C
n

----------
method description: CCTE_Shafer_MEA_dev_correlation_coefficient_mean: CCTE's Neural Network Formation Assay for Mean Correlation Coefficient, Shafer Lab (AID 2284093);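 as to AC50: well mean pairwise spike train correlation integrated as AUC over recording days 5 to 12; potency fitted for loss of correlation relative to DMSO vehicle wells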
Calls of active or inactive are those of the source. How the source made its calls: active means hit-call score of the fitted dose curve at least 0.9, where 1 is the maximum; inactive means score below 0.9.
measure name: AC50

Worked cases, answers included:
> print(dat)
                                     smiles        meas.value
1      Oc1ccc(C(c2ccc(O)cc2)C(Cl)(Cl)Cl)cc1          inactive
2                         CCCN(CCC)C(=O)SCC          inactive
3  S=C(S)NCCNC(=S)S.[Mn+2].[S-]C([S-])=NCCN=C([S-])[S-].[Zn+2]          inactive
4  C#CCOC(=O)[C@@H](C)Oc1ccc(Oc2ncc(Cl)cc2F)cc1          inactive
5  Cc1nn(C)c(Oc2ccccc2)c1C=NOCc1ccc(C(=O)OC(C)(C)C)cc1  2.29 nM (active)
6                                     COCCO          inactive

Please turn your attention to the following entry.
Looking for the measured AC50 of S=C([S-])NCCNC(=S)[S-].[Mn+2] , can you help?
inactive
